ASSAY: Cytotoxicity against human KB/VCR cells assessed as inhibition of cell proliferation at 20 uM measured after 72 hrs by CCK8 assay relative to control
Type: cell-based
Give inhibition at 72 h, 20 µM for every item shown.
Give bare numbers, in %.

Would you mind listing inhibition at 72 h, 20 µM for each of the following compounds?
1. CC(=O)O[C@@H]1[C@@H]2[C@@H](OC(C)=O)[C@]3(OC2(C)C)[C@H](C)CC[C@H](OC(C)=O)[C@@]3(C)[C@H]1OC(=O)c1ccccc1
2. CC(=O)O[C@@H]1C[C@@H](C)[C@]23OC(C)(C)[C@H](C[C@H](OC(=O)c4ccccc4)[C@]2(C)[C@H]1OC(C)=O)[C@H]3OC(=O)/C=C/c1ccccc1

Output:
1: 3.2; 2: 81.8

Would you mind listing inhibition at 72 h, 20 µM for each of the following compounds?
1. CC(=O)O[C@@H]1[C@H]2[C@H](O)[C@H](OC(=O)c3ccccc3)[C@]3(C)[C@@H](OC(C)=O)[C@H](O)C[C@@H](C)[C@@]13OC2(C)C
2. CC(=O)O[C@@H]1C[C@@H](C)[C@]23OC(C)(C)[C@H]([C@@H](O)[C@H](OC(=O)c4ccccc4)[C@@]2(C)[C@H]1OC(C)=O)[C@H]3OC(=O)/C=C/c1ccccc1

Output:
-2.1
78.7

Would you mind listing inhibition at 72 h, 20 µM for each of the following compounds?
1. CC(=O)O[C@@H]1[C@@H]2[C@@H](OC(C)=O)[C@]3(OC2(C)C)[C@H](C)C[C@H](OC(=O)/C=C/c2ccccc2)[C@H](OC(C)=O)[C@@]3(C)[C@@H]1OC(=O)c1ccccc1
2. CC(=O)OC[C@]12[C@H](OC(C)=O)C(=O)[C@@H]3[C@@H](OC(C)=O)[C@]1(OC3(C)C)[C@H](C)C[C@H](O)[C@@H]2OC(C)=O
3. CC(=O)O[C@H]1CC[C@@H](C)[C@]23OC(C)(C)[C@H](C[C@H](OC(=O)c4ccccc4)[C@]12C)[C@H]3OC(=O)c1ccccc1

Output:
-12.8
2.6
77.9

Reported inhibition at 72 h, 20 µM of CC(=O)O[C@H]1C[C@@H](C)[C@]23OC(C)(C)[C@H](C[C@H](OC(=O)c4ccccc4)[C@@]2(C)[C@@H]1OC(C)=O)[C@H]3OC(=O)c1ccccc1 : 57.9

FYI, the data here is from ChEMBL document CHEMBL4811234.
